Quick reference: pIC50 of the listed items.
Target System: NIK (Homo sapiens, UniProt Q99558)
Construct: Both assays utilize a truncated form of NIK containing only the catalytic domain
Sequence (Q99558 400-655 limits assumed): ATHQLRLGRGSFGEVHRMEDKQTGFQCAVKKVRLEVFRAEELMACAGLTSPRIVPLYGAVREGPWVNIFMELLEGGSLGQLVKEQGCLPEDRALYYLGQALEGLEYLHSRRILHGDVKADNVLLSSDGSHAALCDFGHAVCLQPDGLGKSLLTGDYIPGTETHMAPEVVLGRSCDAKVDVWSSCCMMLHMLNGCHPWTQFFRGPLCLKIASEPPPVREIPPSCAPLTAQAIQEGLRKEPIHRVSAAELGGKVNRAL
Assay Procedure: chemiluminescent (CL) assay for NIK IC50 determination
Cond: truncated NIK (catalytic domain only), autophosphorylation; 50 nM biotinylated-NIK; 50 μM ATP; room temperature, 1 hour
Excerpt: Two formats of biochemical assays are implemented: (1) chemiluminescent (CL) assay for NIK IC50 determination; (2) homogenous time resolved fluorescence (HTRF) assay for NIK Ki measurement. […] The NIK proteins are purified with baculovirus expression system and further biotinylated with N-hydroxysuccinamide biotin ester (Sigma). […] The reaction mixtures are then immobilized on a Streptavidin-coated plate (Pierce). […]
pIC50: −log10 of the molar value.

For record COCCn1cc(-c2nc(N)ncc2Cl)c2cc(C#CC3(O)CC[C@@H](C)C3)ccc21 (stereo partly drawn) [Example 140] the listed pIC50 is > 6.00

For record COCCOc1cnc(N)nc1-c1c[nH]c2ccc(C#CC(O)(c3ccccc3)C(F)(F)F)cc12 (stereo not drawn) [Example 235] the listed pIC50 is > 6.00

For record COCCn1cc(-c2nc(N)ncc2Cl)c2cc(C#CC(C)(O)c3nccs3)ccc21 (stereo not drawn) [Example 115] the listed pIC50 is > 6.00

For record CC1(CCO)CN(c2nc(N)ncc2Cl)c2cc(C#CC3(O)CCCC3)ccc21 (stereo not drawn) [Example 51] the listed pIC50 is > 6.00

For record O=C(c1ccc(Nc2nccc(N3CCc4ccc(C#CC5(O)CCCC5)cc43)n2)cc1)N1CCOCC1 [Example 263] the listed pIC50 is > 6.00

For record CN1CCC2(C1)CN(c1ccnc(N)n1)c1cc(C#CC3(O)CCCC3)ccc12 (racemic) [Example 189] the listed pIC50 is > 6.00

For record Nc1ncc(Cl)c(-c2cn(C(=O)c3cccnc3)c3ccc(C#CC4(O)CCCC4)cc23)n1 [Example 123] the listed pIC50 is > 6.00

For record CC(O)(C#Cc1ccc2c(c1)N(c1nc(N)ncc1Cl)CC2)c1nccs1 (stereo not drawn) [Example 286] the listed pIC50 is > 6.00

For record Nc1ncc(Cl)c(-c2cn(C3CCOC3)c3ccc(C#CC4(O)CCCC4)cc23)n1 (stereo not drawn) [Example 138] the listed pIC50 is > 6.00

====

Target System: NIK (Homo sapiens, UniProt Q99558)
Construct: Both assays utilize a truncated form of NIK containing only the catalytic domain; made in house; host or cells: baculovirus expression system (insect cells implied)
Assay Procedure: homogenous time resolved fluorescence (HTRF) assay for NIK Ki measurement
Type: biochemical
Cond: truncated NIK (catalytic domain only), autophosphorylation; 10 nM enzyme; 20, 100, 200 or 500 μM ATP; room temperature, 2 hours; read-out: Ki activity in the homogenous time resolved fluorescence (HTRF) assay for NIK
pKi: −log10 of the molar value.
Quantity Name: pKi

Some entries whose results are on file:
Compound | Quantity Name | Value
CC(C)(O)C#Cc1ccc2c(c1)N(c1ccnc(N)n1)CC2 | pKi | > 6.00
Nc1ncc(Cl)c(-c2cn(CCN3CCOCC3)c3ccc(C#CC4(O)CCCCC4)cc23)n1 | pKi | > 6.00
Nc1ncc(Cl)c(-c2c[nH]c3ccc(C#CC4(O)CCCC4)cc23)n1 | pKi | > 6.00
COC(=O)C(C)(O)C#Cc1ccc2c(c1)N(c1nc(N)ncc1Cl)CC2(C)C (centres unmarked) | pKi | > 6.00

For record CC(O)(C#Cc1ccc(O[C@H]2CCOC2)c(Nc2nc(N)ncc2Cl)c1)c1nccs1 (some centres unmarked) the listed pKi is > 6.00

For record COCCOc1ccc(Nc2ncnc(N3CC(C)(C)c4ccc(C#CC5(O)CCCC5)cc43)n2)cc1 the listed pKi is 4.52 to 6.00

For record COCCNC(=O)c1[nH]c2ccc(C#CC3(O)CCCC3)cc2c1-c1ccnc(N)n1 the listed pKi is > 6.00

For record Cn1cc(-c2nc(N)ncc2Cl)c2cc(C#CC(C)(O)c3nccs3)ccc21 (centres unmarked) the listed pKi is > 6.00

For record Nc1ncc(Cl)c(C2=CC3(CCOCC3)c3ccc(C#CC4(O)CCCC4)cc32)n1 the listed pKi is > 6.00

For record CN1CCOC2(C1)CN(c1nc(N)ncc1Cl)c1cc(C#C[C@@](C)(O)c3nccs3)ccc12 (some centres unmarked) the listed pKi is > 6.00

====

Quick reference: pKi of the listed items.
Target System: NIK (Homo sapiens, UniProt Q99558)
Construct: Both assays utilize a truncated form of NIK containing only the catalytic domain; made in house; host or cells: baculovirus expression system (insect cells implied)
Assay Procedure: homogenous time resolved fluorescence (HTRF) assay for NIK Ki measurement
Assay type: biochemical
pKi: −log10 of the molar value.

Molecule | pKi
COCCOc1cnc(N)nc1-c1c[nH]c2ccc(C#CC(C)(C)O)cc12 [Example 224] | > 6.00

For record Cc1cnc(C(C)(O)C#Cc2ccc3c(c2)N(c2ccnc(N)n2)CC3)o1 (centres unmarked) [Example 316] the listed pKi is > 6.00

====

Target System: NIK (Homo sapiens)
Construct: Both assays utilize a truncated form of NIK containing only the catalytic domain; made in house; host or cells: baculovirus expression system (insect cells implied)
Assay Procedure: homogenous time resolved fluorescence (HTRF) assay for NIK Ki measurement
Format: biochemical
Cond: truncated NIK (catalytic domain only), autophosphorylation; 10 nM enzyme; 20, 100, 200 or 500 μM ATP; room temperature, 2 hours; read-out: Ki activity in the homogenous time resolved fluorescence (HTRF) assay for NIK
Source text: Two formats of biochemical assays are implemented: (1) chemiluminescent (CL) assay for NIK IC50 determination; (2) homogenous time resolved fluorescence (HTRF) assay for NIK Ki measurement. […] The NIK proteins are purified with baculovirus expression system and further biotinylated with N-hydroxysuccinamide biotin ester (Sigma). […] The reaction mixtures are then immobilized on a Streptavidin-coated plate (Pierce). […]
Quantity Name: Ki

Some entries whose results are on file:
Compound | Target System | Value
C[C@](O)(C#Cc1ccc2c(c1)N(c1nc(N)ncc1Cl)CC21CCOCC1)c1nccs1 (single isomer, unassigned) [Example 209a] | NIK (Homo sapiens) | 1 to 30 µM
CC(=O)Nc1cc(C#CC2(O)CCCC2)cc2c1ccn2-c1ccnc(N)n1 | NIK (Homo sapiens) | < 1 µM
CC(O)(C#Cc1ccc2c(c1)N(c1nc(N)ncc1Cl)CC2(CO)CO)c1nccs1 (stereo not shown) | NIK (Homo sapiens) | < 1 µM
Cc1cc(C(C)(O)C#Cc2ccc(F)c(Nc3nc(N)ncc3Cl)c2)no1 (stereo not shown) | NIK (Homo sapiens) | < 1 µM
Cc1cc([C@@](C)(O)C#Cc2ccc3c(c2)N(c2nc(N)ncc2Cl)CC32CCOCC2)on1 (single isomer, unassigned) | NIK (Homo sapiens) | < 1 µM
COCCOCCn1cc(-c2nc(N)ncc2Cl)c2cc(C#CC3(O)CCCCC3)ccc21 | NIK (Homo sapiens) | < 1 µM
C[C@@](O)(C#Cc1ccc2c(c1)N(c1nc(N)ncc1Cl)CC21CCCC1)c1nccs1 | NIK (Homo sapiens) | < 1 µM
Cn1cnc(C(O)C#Cc2ccc3c(c2)N(c2nc(N)ncc2Cl)CC3(C)C)c1 (stereo not shown) | NIK (Homo sapiens) | < 1 µM

For record CC(O)(C#Cc1ccc2c(c1)N(c1ccnc(N)n1)CC2)c1ncco1 (stereo not shown) the listed Ki is < 1 µM

For record C[C@](O)(C#Cc1ccc2c(c1)N(c1nc(N)ncc1Cl)C[C@@]21CCOC1)c1nccs1 (stereo in doubt) the listed Ki is 1 to 30 µM

For record Cc1cc([C@@](C)(O)C#Cc2ccc3c(c2)N(c2nc(N)ncc2Cl)CC3)no1 (single isomer, unassigned) the listed Ki is 1 to 30 µM

For record CC(O)(C#Cc1ccc2c(c1)N(c1ccnc(N)n1)CC2)C1CCC1 (stereo not shown) the listed Ki is < 1 µM

====

Target System: NIK (Homo sapiens, UniProt Q99558)
Construct: Both assays utilize a truncated form of NIK containing only the catalytic domain; made in house; host or cells: baculovirus expression system (insect cells implied)
Assay Procedure: homogenous time resolved fluorescence (HTRF) assay for NIK Ki measurement
Assay type: biochemical
Cond: truncated NIK (catalytic domain only), autophosphorylation; 10 nM enzyme; 20, 100, 200 or 500 μM ATP; room temperature, 2 hours; read-out: Ki activity in the homogenous time resolved fluorescence (HTRF) assay for NIK
Excerpt: Two formats of biochemical assays are implemented: (1) chemiluminescent (CL) assay for NIK IC50 determination; (2) homogenous time resolved fluorescence (HTRF) assay for NIK Ki measurement. […] The NIK proteins are purified with baculovirus expression system and further biotinylated with N-hydroxysuccinamide biotin ester (Sigma). […] The reaction mixtures are then immobilized on a Streptavidin-coated plate (Pierce). […]
Quantity Name: Ki

Some entries whose results are on file:
Compound | Value
COCCOc1cnc(N)nc1-c1c[nH]c2ccc(C#CC(O)(c3cccc(F)c3)C(F)(F)F)cc12 (stereo not shown) [Example 236] | 1000 to 30000 nM
Cc1cc(C(C)(O)C#Cc2ccc3c(c2)N(c2ccnc(N)n2)CC3)c(C)o1 (stereo not shown) [Example 279] | 1000 to 30000 nM
CC(O)(C#Cc1ccc2c(c1)N(c1nc(N)ncc1Cl)CC2(C)CO)c1nccs1 (single isomer, unassigned) [Example 53] | < 1000 nM

Shift focus to the following entry.
For record CC1(CCCO)CN(c2nc(N)ncc2Cl)c2cc(C#CC3(O)CCCC3)ccc21 (stereo not shown) [Example 63] the listed Ki is < 1000 nM
